Tested on: MALME-3M melanoma
Assay: NCI tumour cell line growth inhibition, 48 h
result-type: GI50

Solved cases (2 shown):
COc1cccc(-c2nc(-c3ccc(NC(=O)C(C)C)cc3)[nH]c2-c2ccnc(Br)c2)c1: 2650 nM
Cc1cc(I)cc(CN(C)CCCN2CCCCC2)c1O: 21700 nM

I have this compound here, COc1cc2c3c(n(C)c(=O)c2cc1OC)-c1cc2c(cc1/C3=C\CCN)OCO2 , and I need its recorded GI50.
239 nM

###

Tested on: HOP-92 NSCLC
Test: NCI tumour cell line growth inhibition, 48 h
# Lookup of reported TGI keyed by entry
The reply should contain only the number, in µM.

CCOC(=O)C(=C=C=C(c1ccccc1)c1ccccc1)C(=O)OCC: 31.3
OCc1ccc(-c2ccc(-c3ccc(CO)s3)o2)s1: 91.2
Cc1cc(N(CCOS(C)(=O)=O)CCOS(C)(=O)=O)ccc1C=O: 39
N=C(N)SCc1ccc2c(c1)Sc1ccccc1O2: 26.8
Clc1ccc(C(c2ccc(Cl)cc2)c2ccccn2)cc1: 30.1

I have this molecule here, CC(C)[C@H]1COC(=O)N1[C@@H]1C(=O)N([C@@H](CCC(=O)N2CCN(C3CCCC3)CC2)C(=O)N[C@@H]2CCCc3ccccc32)[C@@H]1/C=C/c1cccc(Br)c1 , and I need its recorded TGI.
4.21

[O-][n+]1ccccc1Sc1nc(Sc2cccc[n+]2[O-])nc(Sc2cccc[n+]2[O-])n1 ?
3.03

CN1CSC(=S)N(c2c3ccccc3nc3ccc(Br)cc23)C1 ?
32.7

Brc1ccccc1C1SCc2nc3ccccc3n21 (stereo unspecified) ?
26.8

Cn1cnc([N+](=O)[O-])c1Sc1nc2ccccc2[nH]1 ?
40.8

Cn1c2ccccc2c2cc(-c3ccccc3)c3c(c21)C(=O)c1ccccc1C3=O ?
26.3

CC(=O)OC1COC(n2ccc3cc(Br)c([N+](=O)[O-])cc32)C(OC(C)=O)C1OC(C)=O (stereo unspecified) ?
42
